Test system: SK-MEL-2 melanoma
Test name: NCI-60 one-dose screen, 48 h (100 = growth as untreated, 0 = no growth, -100 = all killed)
Assay conditions: 10 µM unless noted
Procedure: Growth inhibition of the SK-MEL-2 human tumor cell line is measured as a screen for anti-cancer activity. Cells are grown in 96 well plates and exposed to the test compound for 48 hours. Compounds are tested at a single concentration, which is 10^-5 M for most compounds. The reported endpoint is percent growth (GI% or GIPRCNT), where numbers from 0 - 100% represent growth inhibition, and numbers from -100% - 0 represent cell death. For example, a value of 40 represents 60% growth inhibition. […]
Compounds without any hit were thinned out: in the full panel of roughly 83,000, 20% have a hit.
Could you please mark Satisfied for values of growth below 70% and Not satisfied for values at or above it?

Solved cases below.
| Molecule | Measured target | Cat |
| --- | --- | --- |
| CN1CCN(c2nc(NCCCNc3ccnc4cc(Cl)ccc34)c3ccccc3n2)CC1 | SK-MEL-2 melanoma | Not satisfied |
| CC(C)n1c(/C=C/[C@@H](O)C[C@@H](O)CC(=O)O)c(-c2ccc(F)cc2)c2ccccc21 | SK-MEL-2 melanoma | Satisfied |
| C=C1C(=O)O[C@H]2[C@H]1CC/C(C=Nc1ccc(C(F)(F)F)cc1N)=C\CC[C@@]1(C)O[C@@H]21 | SK-MEL-2 melanoma | Satisfied |

Please state whether growth is below 70% for `c1ccc(Cn2cc(-c3nc4ccccc4s3)c3cccnc32)cc1`
Not satisfied

is_below(growth, 70%) for `Cc1ccc(O)c(N2C(=NCc3ccco3)NS(=O)(=O)c3cnccc32)c1` ?
Not satisfied

Hello, is growth of the following molecule strictly smaller than 70%? `O=C(NCCN1CCOCC1)Nc1ccc(-c2cc3c(Nc4ccc(Oc5cccc(C(F)(F)F)c5)c(Cl)c4)ncnc3s2)cc1`
Satisfied

hey, is growth for `O=C(Oc1cccnc1)c1ccsc1Nc1ccnc(C(F)(F)F)c1` lower than 70% or not?
Not satisfied

Regarding `COc1cc(/C=C/c2cc(/C=C/c3ccc(O)c(OC)c3)n(-c3c(Cl)cccc3Cl)c(=O)n2)ccc1O` , kindly confirm whether its growth is beneath 70%.
Not satisfied

Report whether reported growth is lower than 70% (strictly) for Cc1cc(N2CCCCC2)nc(NC2CCCC(Nc3ccnc4cc(Cl)ccc34)C2)n1 (stereo unspecified)
Satisfied

###

Test system: OVCAR-5 ovarian
Test name: NCI-60 one-dose screen, 48 h (100 = growth as untreated, 0 = no growth, -100 = all killed)
Assay conditions: 10 µM unless noted
The panel holds about 83,000 compounds, 20% with a hit somewhere; the sample as a whole holds those more often. Active and inactive are the calls of the source. Rule for the calls: active = growth percent below 10; inactive = the rest.
Quantity measured: growth

| Compound | Measured target | growth |
| --- | --- | --- |
| NC(=O)c1cc(Br)ccc1NC(=O)/C=C/c1ccccc1 | OVCAR-5 ovarian | 49.9% (inactive) |
| C/C1=C\CC[C@@]2(C)O[C@H]2[C@H]2OC(=O)C(CN3CCN(CC4C(=O)O[C@H]5[C@H]4CC/C(C)=C/CC[C@@]4(C)O[C@@H]54)CC3)[C@@H]2CC1 (stereo partly specified) | OVCAR-5 ovarian | 103% (inactive) |
| O=C1NC(=S)N[C@H]1CC(=O)n1cnc2ccccc21 | OVCAR-5 ovarian | 100% (inactive) |
| CC(=O)Nc1ccc(S(=O)(=O)Nc2cccc(-c3nc(-c4ccc(NC(=O)c5cccnc5)cc4Cl)no3)c2)cc1 | OVCAR-5 ovarian | 84.7% (inactive) |

If you can, please state the reported growth value of `COc1cc2c(cc1O)CC[C@@H]1[C@@H]2CC[C@]2(C)[C@@H](OCCN(C)C)CC[C@@H]12` .
78.8% (inactive)

Find the recorded growth belonging to `COc1ccc(NC(=O)c2ccc(/C=C/C(=O)c3ncc[nH]3)cc2)cc1` and report it.
107% (inactive)

Using the record for `O=C1Nc2c(ccc(Cl)c2Cl)/C1=C\c1ccc(C(F)(F)F)cc1` , report its growth.
83.9% (inactive)

Return reported growth; argument: `O=C1c2cc3c(cc2-c2c1c1ccc(F)cc1c(=O)n2C[C@H](O)[C@@H](O)[C@H](O)CO)OCO3`
-29.8% (active)

# query: growth of entry `O=C(/C=C/c1ccc(C(F)(F)F)cc1)Nc1ccc(C=C2c3ccccc3C(=O)c3ccccc32)cc1`
84.2% (inactive)

Can you share its growth? I mean this compound: `COc1ccc(-c2nc3ccc(-c4nc5ccc(N6CCN(C)CC6)cc5[nH]4)cc3[nH]2)cc1OC`
99.1% (inactive)

Give the measured growth of Cc1cc(N2CCCCCC2)nc(NC2CCCC(Nc3ccnc4cc(Cl)ccc34)C2)n1 (stereo unspecified) .
-24.8% (active)

Which growth value belongs to `Cc1ccc(/C=C2\SC(=S)N(CC(=O)NCCCN3CCOCC3)C2=O)cc1` ?
101% (inactive)

Recorded growth for `CCOc1nc(-c2ccccc2)cc2c(O)c(C(=O)O)[nH]c(=O)c12` , please?
104% (inactive)

# get_value(readout='growth', item= `CN1CCN(c2ccc3nc(-c4ccc(OCCCCN5CCN(CCCCN6C(=O)c7cccc8cccc(c78)C6=O)CC5)cc4)[nH]c3c2)CC1` )
116% (inactive)

Reported growth for `O=C1c2cc3c(cc2-c2c1c1ccc(F)cc1c(=O)n2CCCNCCO)OCO3` : what is it?
-59.4% (active)
